Value source: patent US6908919B2

Provide the reported % Inhibition Factor Xa (30 µM) of each item.
# Study system: Human factor Xa (Homo sapiens, UniProt P00742)
# Sequence (P00742 41-179 limits assumed): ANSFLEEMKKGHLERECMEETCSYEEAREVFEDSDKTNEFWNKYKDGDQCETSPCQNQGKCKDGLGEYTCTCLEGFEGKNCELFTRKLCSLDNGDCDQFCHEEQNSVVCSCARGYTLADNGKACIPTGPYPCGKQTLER
# Sequence (P00742 235-488 limits assumed): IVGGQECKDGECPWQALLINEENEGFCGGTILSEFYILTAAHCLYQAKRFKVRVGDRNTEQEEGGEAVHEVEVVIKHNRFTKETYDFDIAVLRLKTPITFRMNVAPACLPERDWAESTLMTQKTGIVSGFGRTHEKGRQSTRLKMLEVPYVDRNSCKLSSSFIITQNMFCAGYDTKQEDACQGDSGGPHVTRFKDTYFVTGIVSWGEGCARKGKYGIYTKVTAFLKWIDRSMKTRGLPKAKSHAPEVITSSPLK
# Assay details: Xa Assay
# Type: biochemical
# Set-up: purchased Enzyme Research Laboratories, South Bend Ind
# Assay conditions: at 30 µM inhibitor
Value expressed in % @ 30; do not type the unit.

I'd like to know its % Inhibition Factor Xa (30 µM). The molecule in question is N=C(N)c1ccc(CNC(=O)Cn2c(Cc3ccccc3)c(Cl)nc(NCCc3ccccc3)c2=O)cc1 [Example 20]
6

I'd like to know its % Inhibition Factor Xa (30 µM). The molecule in question is Nc1cccc(-c2c(Cl)nc(NC3CCC3)c(=O)n2CC(=O)NCc2ccccc2)c1 [Example 99]
8

###

Provide the reported inhibition at 100 µM of each item.
# Study system: Human factor Xa (Homo sapiens, UniProt P00742)
# Assay details: Xa Assay
# Type: biochemical
# Parameters: purchased Enzyme Research Laboratories, South Bend Ind
# Assay conditions: at 100 μM inhibitor
Value expressed in %; do not type the unit.

I'd like to know its inhibition at 100 µM. The compound in question is CC(C)Nc1nc(Cl)c(-c2cc(N)cc(C(=O)NCc3ccc(C(C)(C)C)cc3)c2)n(CC(=O)NCc2ccc(C(=N)N)cc2)c1=O
40

I'd like to know its inhibition at 100 µM. The compound in question is CC(C)Nc1nc(Cl)c(-c2cc(N)cc(C(=O)NC(C)c3ccccc3)c2)n(CC(=O)NCc2ccc(C(=N)N)cc2)c1=O (stereo not drawn)
40

I'd like to know its inhibition at 100 µM. The compound in question is CC(C)Nc1nc(Cl)c(-c2cc(N)cc(C(=O)N(C)Cc3ccccc3)c2)n(CC(=O)NCc2ccc(C(=N)N)cc2)c1=O
41

###

# Study system: UniProt:P00742
# Assay details: Xa Assay
# Type: biochemical
# Set-up: purchased Enzyme Research Laboratories, South Bend Ind
# Assay conditions: at 30 µM
Provide the reported % Inhibition Factor Xa (30 µM) of each item.
Value expressed in %; do not type the unit.

Find the measured % Inhibition Factor Xa (30 µM): item CC(C)CCNc1nc(Cl)c(-c2ccccc2)n(CC(=O)NCc2ccc(C(=N)N)cc2)c1=O [Example 1517-40] , target or system UniProt:P00742.
0

Find the measured % Inhibition Factor Xa (30 µM): item CCCCCNc1nc(Cl)c(-c2ccccc2)n(CC(=O)NCc2ccc(C(=N)N)cc2)c1=O [Example 1517-48] , target or system UniProt:P00742.
0

Find the measured % Inhibition Factor Xa (30 µM): item C[C@@H](C(=O)NCc1ccc(C(=N)N)cc1)n1c(-c2ccccc2)c(Cl)nc(NCCc2ccccc2)c1=O [Example 1517-15] , target or system UniProt:P00742.
0

###

# Study system: Human factor Xa (Homo sapiens)
# Assay details: Xa Assay
# Assay type: biochemical
# Design: purchased Enzyme Research Laboratories, South Bend Ind
# Assay conditions: inhibitor at 100 µM
Provide the reported % Inhibition Factor Xa (100 µM) of each item.

I'd like to know its % Inhibition Factor Xa (100 µM). The compound in question is COc1ccc(-c2c(Cl)nc(NCc3ccncc3)c(=O)n2CC(=O)NCCc2ccncc2)cc1
0%

I'd like to know its % Inhibition Factor Xa (100 µM). The compound in question is O=C(Cn1c(-c2ccc3c(c2)OCO3)c(Cl)nc(NCCc2cccc(Cl)c2)c1=O)NCCc1ccncc1
0%

I'd like to know its % Inhibition Factor Xa (100 µM). The compound in question is O=C(Cn1c(-c2ccccc2)c(Cl)nc(NCc2ccncc2)c1=O)NCCc1ccncc1
0%

###

# Study system: Human factor Xa (Homo sapiens, UniProt P00742)
# Assay details: Xa Assay
# Assay type: biochemical
# Parameters: purchased Enzyme Research Laboratories, South Bend Ind
# Assay conditions: at 30 µM inhibitor
Test readout: % Inhibition Factor Xa (30 µM) (%)
Value expressed in %; do not type the unit.

Find the measured % Inhibition Factor Xa (30 µM): item CC(C)Nc1nc(Br)c(-c2cccc(N)c2)n(CC(=O)NCc2ccc(C(=N)N)cc2)c1=O , target or system Human factor Xa (Homo sapiens, UniProt P00742).
17

Find the measured % Inhibition Factor Xa (30 µM): item CC(C)Nc1nc(Cl)c(-c2cccc(N)c2)n(CC(=O)Nc2ccc(S(=O)(=O)NC(=N)N)cc2)c1=O , target or system Human factor Xa (Homo sapiens, UniProt P00742).
11

Find the measured % Inhibition Factor Xa (30 µM): item N=C(N)c1ccc(CNC(=O)Cn2c(-c3ccccc3)c(Cl)nc(NCc3c(F)cccc3C(F)(F)F)c2=O)cc1 , target or system Human factor Xa (Homo sapiens, UniProt P00742).
6

Find the measured % Inhibition Factor Xa (30 µM): item COc1ccc(CCNc2nc(Cl)c(-c3ccccc3)n(CC(=O)NCc3ccc(C(=N)N)cc3)c2=O)cc1OC , target or system Human factor Xa (Homo sapiens, UniProt P00742).
10

Find the measured % Inhibition Factor Xa (30 µM): item N=C(N)c1ccc(CNC(=O)Cn2c(-c3ccccc3)c(Cl)nc(NC3CCCc4ccccc43)c2=O)cc1 (centres unmarked) , target or system Human factor Xa (Homo sapiens, UniProt P00742).
18

Find the measured % Inhibition Factor Xa (30 µM): item N=C(N)c1ccc(CNC(=O)Cn2c(-c3ccccc3)c(Cl)nc(NCC(F)(F)F)c2=O)cc1 , target or system Human factor Xa (Homo sapiens, UniProt P00742).
17

Find the measured % Inhibition Factor Xa (30 µM): item N=C(N)c1ccc(CNC(=O)Cn2c(-c3ccccc3)c(Cl)nc(NCc3ccc(C(F)(F)F)cc3F)c2=O)cc1 , target or system Human factor Xa (Homo sapiens, UniProt P00742).
5

Find the measured % Inhibition Factor Xa (30 µM): item CCc1c(Cl)nc(NCc2ccncc2)c(=O)n1CC(=O)NCc1ccc(C(=N)N)cc1 , target or system Human factor Xa (Homo sapiens, UniProt P00742).
0

Find the measured % Inhibition Factor Xa (30 µM): item CC(=O)Nc1cccc(-c2c(Cl)nc(NC(C)C)c(=O)n2CC(=O)NCCc2ccc(C(=N)N)cc2)c1 , target or system Human factor Xa (Homo sapiens, UniProt P00742).
6

Find the measured % Inhibition Factor Xa (30 µM): item N=C(N)c1ccc(CNC(=O)Cn2c(-c3ccccc3)c(Cl)nc(NCCN3CCOCC3)c2=O)cc1 , target or system Human factor Xa (Homo sapiens, UniProt P00742).
9

Find the measured % Inhibition Factor Xa (30 µM): item N=C(N)c1ccc(CNC(=O)Cn2c(-c3ccccc3)c(Cl)nc(NC3CCC3)c2=O)cc1 , target or system Human factor Xa (Homo sapiens, UniProt P00742).
23

Find the measured % Inhibition Factor Xa (30 µM): item N=C(N)c1ccc(CNC(=O)Cn2c(-c3ccccc3)c(Cl)nc(NCc3cc(F)cc(F)c3)c2=O)cc1 , target or system Human factor Xa (Homo sapiens, UniProt P00742).
4

Find the measured % Inhibition Factor Xa (30 µM): item N=C(N)c1ccc(CNC(=O)Cn2c(-c3ccccc3)c(Cl)nc(NC(c3ccccc3)c3ccccc3)c2=O)cc1 , target or system Human factor Xa (Homo sapiens, UniProt P00742).
28

Find the measured % Inhibition Factor Xa (30 µM): item N=C(N)c1ccc(CNC(=O)Cn2c(-c3cccc(Cl)c3)c(Cl)nc(NCCc3ccncc3)c2=O)cc1 , target or system Human factor Xa (Homo sapiens, UniProt P00742).
21

Find the measured % Inhibition Factor Xa (30 µM): item CC(C)Nc1nc(Cl)c(-c2cccc(C(=O)O)c2)n(CC(=O)NCc2ccc(C(=N)N)cc2)c1=O , target or system Human factor Xa (Homo sapiens, UniProt P00742).
12

Find the measured % Inhibition Factor Xa (30 µM): item Cc1c(Cl)nc(NCCc2cccnc2)c(=O)n1CC(=O)NCc1ccc(C(=N)N)cc1 , target or system Human factor Xa (Homo sapiens, UniProt P00742).
27

Find the measured % Inhibition Factor Xa (30 µM): item N=C(N)c1ccc(CNC(=O)Cn2c(-c3ccc4c(c3)OCO4)c(Cl)nc(NCCc3cccnc3)c2=O)cc1 , target or system Human factor Xa (Homo sapiens, UniProt P00742).
17

Find the measured % Inhibition Factor Xa (30 µM): item N=C(N)c1ccc(CNC(=O)Cn2c(-c3ccccc3)c(Cl)nc(NCCc3ccccn3)c2=O)cc1 , target or system Human factor Xa (Homo sapiens, UniProt P00742).
13

###

Provide the reported % Inhibition Factor Xa (100 µM) of each item.
# Study system: Human factor Xa (Homo sapiens, UniProt P00742)
# Assay details: Xa Assay
# Type: biochemical
# Parameters: purchased Enzyme Research Laboratories, South Bend Ind
# Assay conditions: inhibitor at 100 µM
Just the number plus its unit, please.

I'd like to know its % Inhibition Factor Xa (100 µM). The compound in question is COc1ccc(-c2c(Cl)nc(NCCc3ccncc3)c(=O)n2CC(=O)NCCc2ccncc2)cc1
0%

I'd like to know its % Inhibition Factor Xa (100 µM). The compound in question is O=C(Cn1c(-c2ccc(Cl)cc2)c(Cl)nc(NCCc2cccnc2)c1=O)NCCc1ccncc1 [Example E-0029]
0%

I'd like to know its % Inhibition Factor Xa (100 µM). The compound in question is COc1ccc(-c2c(Cl)nc(NCCc3cccc(Cl)c3)c(=O)n2CC(=O)NCCc2ccncc2)cc1 [Example E-0103]
3%

I'd like to know its % Inhibition Factor Xa (100 µM). The compound in question is O=C(Cn1c(-c2cccc(Cl)c2)c(Cl)nc(NCCc2ccc(Cl)cc2)c1=O)NCCc1cccnc1 [Example E-0083]
3%

I'd like to know its % Inhibition Factor Xa (100 µM). The compound in question is COc1ccc(-c2c(Cl)nc(NCc3ccccc3)c(=O)n2CC(=O)NCCc2ccncc2)cc1 [Example E-0033]
0%

I'd like to know its % Inhibition Factor Xa (100 µM). The compound in question is O=C(Cn1c(-c2cccc(Cl)c2)c(Cl)nc(NCCc2ccccc2)c1=O)NCCc1ccncc1 [Example E-0088]
3%

I'd like to know its % Inhibition Factor Xa (100 µM). The compound in question is O=C(Cn1c(-c2cccc(Cl)c2)c(Cl)nc(NCCc2ccccc2)c1=O)NCCc1ccncc1 [Example E-0076]
1%

I'd like to know its % Inhibition Factor Xa (100 µM). The compound in question is O=C(Cn1c(-c2ccccc2)c(Cl)nc(NCCc2ccccc2)c1=O)NCCc1ccncc1
0%
